test-summary: Plasma and blood pharmacokinetics of 5-ALA and PPIX after IV SONALA-001 (LC-MS/MS)
Assay type: in vivo
protocol-conditions: human, plasma; 10 mg/kg IV Sonala-001; recurrent GBM patients; read-out: median Cmax for 5-ALA in plasma

| chemical-structure | Cmax [µM] |
| --- | --- |
| NCC(=O)CCC(=O)O | 307 |
